Tested on: Mycobacterium tuberculosis
Experiment: Antimycobacterial activity against Mycobacterium tuberculosis H37Rv assessed as inhibition of bacterial growth by MABA assay
Format: functional
MIC under 40 µM gets Y, anything at or over 40 µM gets N.

Solved entries:
{"MOLECULE": "CC#CCn1c(N2CCN(C(=O)C3Cc4ccccc4N3)CC2)nc2c1c(=O)n(Cc1ccc(F)c(F)c1)c(=O)n2C (stereo not drawn)", "SYSTEM": "Mycobacterium tuberculosis", "ANSWER_LABEL": "N"}
{"MOLECULE": "CC#CCn1c(N2CCN(C(=O)c3cccc(F)c3)CC2)nc2c1c(=O)n(Cc1ccc(F)c(F)c1)c(=O)n2C", "SYSTEM": "Mycobacterium tuberculosis", "ANSWER_LABEL": "N"}
{"MOLECULE": "C=CCNC(=O)N1CCN(c2nc3c(c(=O)n(Cc4ccc(F)c(F)c4)c(=O)n3C)n2CC#CC)CC1", "SYSTEM": "Mycobacterium tuberculosis", "ANSWER_LABEL": "N"}
{"MOLECULE": "NNC(=O)c1ccncc1", "SYSTEM": "Mycobacterium tuberculosis", "ANSWER_LABEL": "Y"}
{"MOLECULE": "CC#CCn1c(N2CCN(S(=O)(=O)c3cccc(Cl)c3)CC2)nc2c1c(=O)n(Cc1ccc(F)c(F)c1)c(=O)n2C", "SYSTEM": "Mycobacterium tuberculosis", "ANSWER_LABEL": "Y"}
{"MOLECULE": "CC#CCn1c(N2CCN(C(=O)Nc3ccc(SC)cc3)CC2)nc2c1c(=O)n(Cc1ccc(F)c(F)c1)c(=O)n2C", "SYSTEM": "Mycobacterium tuberculosis", "ANSWER_LABEL": "Y"}
{"MOLECULE": "CC#CCn1c(N2CCN(C(=O)C34CC5CC(CC(C5)C3)C4)CC2)nc2c1c(=O)n(Cc1ccc(F)c(F)c1)c(=O)n2C", "SYSTEM": "Mycobacterium tuberculosis", "ANSWER_LABEL": "N"}

Now examine the next entry.
Please indicate whether the reported MIC of CC#CCn1c(N2CCN(C(=O)Nc3ccccc3Cl)CC2)nc2c1c(=O)n(Cc1ccc(F)c(F)c1)c(=O)n2C is strictly below 40 µM. N

---

System: Mycobacterium tuberculosis
Assay: Antimycobacterial activity against Mycobacterium tuberculosis H37Rv assessed as inhibition of bacterial growth by MABA assay
Assay type: functional
The following compounds are listed with their measured MIC values.
Report as: number unit

Known MIC results, listed for orientation:
{"COMPOUND": "CC[C@@H](CO)NCCN[C@@H](CC)CO [ETHAMBUTOL]", "MIC": "7.63 µM"}
{"COMPOUND": "CC#CCn1c(N2CCN(C(=O)c3ccccc3C(F)(F)F)CC2)nc2c1c(=O)n(Cc1ccc(F)c(F)c1)c(=O)n2C", "MIC": "41.6 µM"}
{"COMPOUND": "CC#CCn1c(N2CCN(C(=O)Nc3ccc(Cl)cc3)CC2)nc2c1c(=O)n(Cc1ccc(F)c(F)c1)c(=O)n2C", "MIC": "41 µM"}

Return reported MIC; argument: CC#CCn1c(N2CCN(C(=O)Cc3ccc(F)cc3)CC2)nc2c1c(=O)n(Cc1ccc(F)c(F)c1)c(=O)n2C 44.3 µM

Return reported MIC; argument: CC#CCn1c(N2CCN(S(=O)(=O)c3ccccc3)CC2)nc2c1c(=O)n(Cc1ccc(F)c(F)c1)c(=O)n2C 44 µM

Return reported MIC; argument: CC#CCn1c(N2CCN(C(=O)c3csc(Br)n3)CC2)nc2c1c(=O)n(Cc1ccc(F)c(F)c1)c(=O)n2C 40.5 µM

Return reported MIC; argument: CC#CCn1c(N2CCN(C(=O)Nc3cccc(C(F)(F)F)c3)CC2)nc2c1c(=O)n(Cc1ccc(F)c(F)c1)c(=O)n2C 20.3 µM

Return reported MIC; argument: CC#CCn1c(N2CCN(C(=S)Nc3cccc(Cl)c3)CC2)nc2c1c(=O)n(Cc1ccc(F)c(F)c1)c(=O)n2C 7.17 µM

Return reported MIC; argument: CC#CCn1c(N2CCN(C(=O)Nc3ccc(C(F)(F)F)cc3)CC2)nc2c1c(=O)n(Cc1ccc(F)c(F)c1)c(=O)n2C 5.08 µM

Return reported MIC; argument: CC#CCn1c(N2CCN(C(=S)Nc3ccc(Cl)cc3)CC2)nc2c1c(=O)n(Cc1ccc(F)c(F)c1)c(=O)n2C 34.5 µM

Return reported MIC; argument: CC#CCn1c(N2CCN(C(=O)c3sccc3Cl)CC2)nc2c1c(=O)n(Cc1ccc(F)c(F)c1)c(=O)n2C 43.7 µM

Return reported MIC; argument: CC#CCn1c(N2CCN(C(=O)c3nccnc3Cl)CC2)nc2c1c(=O)n(Cc1ccc(F)c(F)c1)c(=O)n2C 44 µM

Return reported MIC; argument: CC#CCn1c(N2CCN(C(=S)Nc3ccccc3Br)CC2)nc2c1c(=O)n(Cc1ccc(F)c(F)c1)c(=O)n2C 39 µM

---

Test system: Mycobacterium tuberculosis
Experiment: Antimycobacterial activity against Mycobacterium tuberculosis H37Rv assessed as inhibition of bacterial growth by MABA assay
Format: functional
The following compounds are listed with their measured MIC values.
Response body: numeric value in µM, unit text excluded.

Known MIC results, listed for orientation:
{"CHEMICAL_STRUCTURE": "CC#CCn1c(N2CCN(C(=O)CCc3ccc(F)cc3)CC2)nc2c1c(=O)n(Cc1ccc(F)c(F)c1)c(=O)n2C", "SYSTEM": "Mycobacterium tuberculosis", "RECORDED_NUMBER": 43.2}
{"CHEMICAL_STRUCTURE": "CC#CCn1c(N2CCN(C(=O)C3CCC3)CC2)nc2c1c(=O)n(Cc1ccc(F)c(F)c1)c(=O)n2C", "SYSTEM": "Mycobacterium tuberculosis", "RECORDED_NUMBER": 49}
{"CHEMICAL_STRUCTURE": "CC#CCn1c(N2CCN(C(=S)Nc3c(F)cccc3Cl)CC2)nc2c1c(=O)n(Cc1ccc(F)c(F)c1)c(=O)n2C", "SYSTEM": "Mycobacterium tuberculosis", "RECORDED_NUMBER": 40.6}

Please turn your attention to the following entry.
Return reported MIC; argument: CC#CCn1c(N2CCN(C(=O)c3cccc4ccccc34)CC2)nc2c1c(=O)n(Cc1ccc(F)c(F)c1)c(=O)n2C 53.3

---

The following compounds are listed with their measured MIC values.
Tested on: Mycobacterium tuberculosis
Test: Antimycobacterial activity against Mycobacterium tuberculosis H37Rv assessed as inhibition of bacterial growth by MABA assay
Type: functional
Response body: numeric value in µM, unit text excluded.

{"COMPOUND": "CC#CCn1c(N2CCN(C(=O)COc3ccccc3)CC2)nc2c1c(=O)n(Cc1ccc(F)c(F)c1)c(=O)n2C", "SYSTEM": "Mycobacterium tuberculosis", "MIC, µM": 44.5}
{"COMPOUND": "CC#CCn1c(N2CCN(C(=S)Nc3ccccc3Cl)CC2)nc2c1c(=O)n(Cc1ccc(F)c(F)c1)c(=O)n2C", "SYSTEM": "Mycobacterium tuberculosis", "MIC, µM": 41.9}
{"COMPOUND": "CC#CCn1c(N2CCN(C(=O)c3ccc(C(F)(F)F)cc3)CC2)nc2c1c(=O)n(Cc1ccc(F)c(F)c1)c(=O)n2C", "SYSTEM": "Mycobacterium tuberculosis", "MIC, µM": 51.5}
{"COMPOUND": "CC#CCn1c(N2CCN(C(=O)c3c(F)cc(OC)cc3F)CC2)nc2c1c(=O)n(Cc1ccc(F)c(F)c1)c(=O)n2C", "SYSTEM": "Mycobacterium tuberculosis", "MIC, µM": 41.8}
{"COMPOUND": "CC#CCn1c(N2CCN(C(=O)C3CCC(C(F)(F)F)CC3)CC2)nc2c1c(=O)n(Cc1ccc(F)c(F)c1)c(=O)n2C (stereo not drawn)", "SYSTEM": "Mycobacterium tuberculosis", "MIC, µM": 16.4}
{"COMPOUND": "CC#CCn1c(N2CCN(C(=O)C3CCCCN3C(=O)OC(C)(C)C)CC2)nc2c1c(=O)n(Cc1ccc(F)c(F)c1)c(=O)n2C (stereo not drawn)", "SYSTEM": "Mycobacterium tuberculosis", "MIC, µM": 39.1}

Return reported MIC; argument: CC#CCn1c(N2CCN(C(=O)c3cccnc3C(F)(F)F)CC2)nc2c1c(=O)n(Cc1ccc(F)c(F)c1)c(=O)n2C 41.6

Return reported MIC; argument: O=C(O)c1cn(C2CC2)c2cc(N3CCNCC3)c(F)cc2c1=O 0.94
